The measurements presented in this section are drawn from PubChem BioAssay (NCATS).

Measured Target: Cellular tumor antigen p53 (Homo sapiens) (UniProt P04637)
Sequence (P04637 whole entry, looked up): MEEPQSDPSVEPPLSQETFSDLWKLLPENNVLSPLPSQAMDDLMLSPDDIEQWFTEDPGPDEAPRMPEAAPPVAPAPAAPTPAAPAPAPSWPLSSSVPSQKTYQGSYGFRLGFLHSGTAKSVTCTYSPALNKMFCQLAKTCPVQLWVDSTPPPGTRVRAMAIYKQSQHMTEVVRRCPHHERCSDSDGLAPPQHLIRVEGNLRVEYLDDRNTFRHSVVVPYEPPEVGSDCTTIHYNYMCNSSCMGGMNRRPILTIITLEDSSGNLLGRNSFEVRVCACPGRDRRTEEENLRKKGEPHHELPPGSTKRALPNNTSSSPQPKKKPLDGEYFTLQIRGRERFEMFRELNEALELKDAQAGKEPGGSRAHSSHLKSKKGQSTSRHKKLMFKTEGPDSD
Test Description: Primary qHTS for small molecule compounds that upregulate eGFP-tagged delta133p53alpha (in N-terminal) cells. (AID 2060322);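 further: cells pre-induced with doxycycline then dosed without doxycycline; series mostly up to about 56 µM; 0% = DMSO vehicle and 100% = reference activator; nearly all actives have a fitted effect of over 75% in size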
Test Conditions: NCI-H358 eGFP-delta133p53alpha fluorescence, 24 h; hits give high values
Records with an inconclusive call do not appear.
Measurement Label: activation (%)
Field: numeric (%). Do not append units.

CC(=O)O[C@@H]1[C@@H](OC(C)=O)[C@H](C)O[C@@H](O[C@H]2[C@@H]3C=CO[C@@H](O[C@@H]4O[C@H](CO)[C@@H](O)[C@H](O)[C@H]4O)[C@@H]3[C@@]3(CO)O[C@@H]23)[C@@H]1OC(=O)/C=C/c1ccccc1 ... -1.53
C[C@@H]1O[C@@H](O[C@H]2[C@H](OC(=O)[C@]34CCC(C)(C)C[C@H]3C3=CCC5[C@@]6(C)CC[C@H](O[C@@H]7O[C@H](C(=O)O)[C@@H](O)[C@H](O)[C@H]7O[C@@H]7O[C@H](CO)[C@H](O)[C@H](O)[C@H]7O)[C@@](C)(C=O)C6CC[C@@]5(C)[C@]3(C)C[C@H]4O)O[C@H](C)[C@H](O[C@@H]3O[C@H](C)[C@H](O)[C@H](O)[C@H]3O)[C@@H]2O)[C@H](O)[C@H](O)[C@H]1O[C@@H]1OC[C@@H](O)[C@H](O[C@@H]2O[C@H](CO)[C@@H](O)[C@H](O)[C@H]2O)[C@H]1O (stereo partly drawn) ... -6.87
O=C(O)Cc1cccc(OCCCN(Cc2cccc(C(F)(F)F)c2Cl)CC(c2ccccc2)c2ccccc2)c1 ... 4.75

Record request: activation value, item COc1cc2c(cc1OC)[C@@H]1C(=O)c3ccc4c(c3O[C@@H]1CO2)C=CC(C)(C)O4 -3.86

I would be grateful if you could share the reported activation for C[C@@H]1CCC2C(C)(C)[C@H](O)CC[C@]2(C)[C@@]12Cc1c(O)cc3c(c1O2)CNC3=O (stereo partly drawn) . -20.6

Report activation for Nc1ccccc1NC(=O)CCCCCCC(=O)Nc1ccccc1 please. -13.4
